Experimental details: Selectivity index, ratio of CC50 for MDCK cells to IC50 for Influenza A virus (A/California/07/09(H1N1)) pdm09
Assay type: functional
Answer rule not met if Ratio CC50/IC50 is under 10, and rule met if it is 10 or more.

For orientation, consider the following solved cases.
Cl.N=c1n(Cc2ccc(F)cc2)c2ccccc2n1Cc1ccc(Cl)c(Cl)c1 :: rule not met
Cl.N=c1n(CCOc2ccc(F)cc2)c2ccccc2n1CC(N)=O :: rule met
Cc1ccccc1OCCn1/c(=N/C(=O)c2cccs2)[nH]c2ccccc21 :: rule not met
Br.C=CCn1c(=N)n(CCOc2ccc(C(C)(C)C)cc2)c2ccccc21 :: rule not met
S=C(Nc1ccccc1)Nc1nc2ccccc2n1CCOc1ccccc1 :: rule not met

Please tell me: is the molecule "O=C(/N=c1\[nH]c2ccccc2n1CCOc1cccc(Cl)c1)c1ccco1" at or over 10 in terms of Ratio CC50/IC50? rule met

Again, but for "Br.C=CCn1c(=N)n(CCCOc2ccc(F)cc2)c2ccccc21" rule not met

Source listed as ChEMBL document CHEMBL3860083.
